molecular target: STK33 (human); test: radiometric filter-binding kinase assay, Kinase HotSpot; conditions: compound 0.5 µM; ATP 10 µM
// values below are reported residual activity
Attribute measured: residual activity (%)

[[record]]
chem_smiles = "Cc1ccc(Nc2nccc(N(C)c3ccc4c(C)n(C)nc4c3)n2)cc1S(N)(=O)=O"
measured_target = "STK33 (human)"
units_of_measure = "%"
numeric_readout = 87.1

[[record]]
chem_smiles = "O=c1cc(N2CCOCC2)oc2c1ccc1ccccc12"
measured_target = "STK33 (human)"
units_of_measure = "%"
numeric_readout = 97.5

[[record]]
chem_smiles = "CCC(=O)Nc1ccc2ncnc(Nc3cccc(Br)c3)c2c1"
measured_target = "STK33 (human)"
units_of_measure = "%"
numeric_readout = 94.1

[[record]]
chem_smiles = "O=S(=O)(c1cccc2cnccc12)N1CCCNCC1"
measured_target = "STK33 (human)"
units_of_measure = "%"
numeric_readout = 90.3


###

molecular target: UniProtKB Q8TDX7; test: radiometric filter-binding kinase assay, Kinase HotSpot; conditions: compound 0.5 µM; ATP 10 µM
Sequence (Q8TDX7 whole entry, looked up): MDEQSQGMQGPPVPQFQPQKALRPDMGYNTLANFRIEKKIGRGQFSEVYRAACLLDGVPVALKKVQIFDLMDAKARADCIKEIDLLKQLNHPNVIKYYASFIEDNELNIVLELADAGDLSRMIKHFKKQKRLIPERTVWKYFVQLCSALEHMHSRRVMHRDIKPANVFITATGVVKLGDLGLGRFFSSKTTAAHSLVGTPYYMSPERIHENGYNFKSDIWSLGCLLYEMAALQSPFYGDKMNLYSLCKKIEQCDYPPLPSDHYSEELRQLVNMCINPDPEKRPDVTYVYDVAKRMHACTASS
// values below are reported residual activity
Attribute measured: residual activity (%)

[[record]]
chem_smiles = "Nc1ncnc2c1c(-c1ccc(Oc3ccccc3)cc1)cn2C1CCCC1"
measured_target = "UniProtKB Q8TDX7"
numeric_readout = 94.6

[[record]]
chem_smiles = "O=C1NC(=O)c2c1c1c3ccccc3n3c1c1c2c2ccccc2n1C1CCC3O1"
measured_target = "UniProtKB Q8TDX7"
numeric_readout = 99.1

[[record]]
chem_smiles = "CNc1cc2c(Nc3cccc(Br)c3)ncnc2cn1"
measured_target = "UniProtKB Q8TDX7"
numeric_readout = 90.4

[[record]]
chem_smiles = "CC(=O)c1ccc(N2CCOCC2)cc1O"
measured_target = "UniProtKB Q8TDX7"
numeric_readout = 101

[[record]]
chem_smiles = "c1ccc(-c2n[nH]c3c2oc2ccccc23)cc1"
measured_target = "UniProtKB Q8TDX7"
numeric_readout = 105

[[record]]
chem_smiles = "COc1ccc2c(c[n+](C)c3c4cc5c(cc4ccc23)OCO5)c1OC"
measured_target = "UniProtKB Q8TDX7"
numeric_readout = 98.9

[[record]]
chem_smiles = "CCCC(=O)Oc1ccc2[nH]c(C(=O)c3cc4ccccc4[nH]3)cc2c1"
measured_target = "UniProtKB Q8TDX7"
numeric_readout = 95.5

[[record]]
chem_smiles = "O=c1cc(N2CCOCC2)oc2c1ccc1ccccc12"
measured_target = "UniProtKB Q8TDX7"
numeric_readout = 96.6

[[record]]
chem_smiles = "Nc1ncnc2[nH]nc(Nc3ccc(F)cc3)c12"
measured_target = "UniProtKB Q8TDX7"
numeric_readout = 97

[[record]]
chem_smiles = "Nc1ccc2ncnc(NCCc3ccc(Oc4ccccc4)cc3)c2c1"
measured_target = "UniProtKB Q8TDX7"
numeric_readout = 96

[[record]]
chem_smiles = "Oc1cccc(-c2nc(N3CCOCC3)c3oc4ncccc4c3n2)c1"
measured_target = "UniProtKB Q8TDX7"
numeric_readout = 97.3

[[record]]
chem_smiles = "CC#CC(=O)Nc1cc2c(Nc3ccc(F)c(Cl)c3)ncnc2cn1"
measured_target = "UniProtKB Q8TDX7"
numeric_readout = 98.2

[[record]]
chem_smiles = "O=C1NC(=O)C(c2cn(CCCn3ccnc3)c3ccccc23)=C1Nc1ccccc1"
measured_target = "UniProtKB Q8TDX7"
numeric_readout = 102

[[record]]
chem_smiles = "O=C(Nc1cccc(Nc2nccc(Nc3cccc(C(F)(F)F)c3)n2)c1)C1CC1"
measured_target = "UniProtKB Q8TDX7"
numeric_readout = 116

[[record]]
chem_smiles = "CCN(CC)CCNC(=O)c1c(C)[nH]c(/C=C2\\C(=O)Nc3ccc(Cl)cc32)c1C"
measured_target = "UniProtKB Q8TDX7"
numeric_readout = 99.3

[[record]]
chem_smiles = "CC[n+]1c(/C=C/N(C)c2ccccc2)n(-c2ccccc2)c2ccc(-c3nc4ccccc4s3)cc21"
measured_target = "UniProtKB Q8TDX7"
numeric_readout = 95.4

[[record]]
chem_smiles = "N#C/C(=C(/N)Sc1ccc(N)cc1)c1ccccc1C(F)(F)F"
measured_target = "UniProtKB Q8TDX7"
numeric_readout = 93.9

